target-or-test-system: T1, CRBN, Q96SW2;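 further: pooled lentiviral library of zinc finger degron-EGFP fusions in mCherry-positive Jurkat cells, FACS-sorted after compound exposure, with degron abundance counted by next-generation sequencing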
T1 chain: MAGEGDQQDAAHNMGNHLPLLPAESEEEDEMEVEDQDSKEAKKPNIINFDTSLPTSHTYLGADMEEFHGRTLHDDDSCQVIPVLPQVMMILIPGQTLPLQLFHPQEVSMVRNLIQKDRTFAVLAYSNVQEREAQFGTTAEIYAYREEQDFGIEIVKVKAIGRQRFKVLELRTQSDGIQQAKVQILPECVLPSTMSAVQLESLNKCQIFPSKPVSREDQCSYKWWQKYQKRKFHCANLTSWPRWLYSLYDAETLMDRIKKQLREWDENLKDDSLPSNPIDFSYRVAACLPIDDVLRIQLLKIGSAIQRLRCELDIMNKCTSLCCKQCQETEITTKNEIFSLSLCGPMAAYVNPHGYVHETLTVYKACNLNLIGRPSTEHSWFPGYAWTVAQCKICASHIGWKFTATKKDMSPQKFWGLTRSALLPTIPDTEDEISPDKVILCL
test-protocol: log2 fold change of degron read counts, EGFP-low vs EGFP+ sorted cells (limma voom), compound-induced degradation; higher = more compound-induced degradation of the degron-EGFP fusion; degrons are variants of IKZF1/3 zinc finger 2; compound dose not given here
stated-conditions: Jurkat; 18 h; compound: compound 22 (5-morpholino-thalidomide)
Over roughly 8,300 sequences, “log2 fold change of degron read counts, EGFP-low vs EGFP+ sorted cells (limma voom), compound-induced degradation” has its median near -1.1; the highest 2% begin near 3.2. The sample as a whole holds a higher share of the highest values than the screen did.
Short version: log2 fold change of degron read counts at least -2 is 1 (yes), less is 0 (no).

* FNCPICGHYFTQKGNLLRHIKL [46F_47N_49P_50I_52G_53H_54Y_55F_67L_, Q9UKT9] | 1 (yes)

Does FHCNQCGRVFTQKGNLLRHIKL [46F_47H_49N_50Q_52G_53R_54V_55F_67L_, Q9UKT9] have a reported log2 fold change of degron read counts of at least -2?
0 (no)

Does FVCNICGAPFTQKGNLLRHIKL [46F_47V_49N_50I_52G_53A_54P_55F_67L_, Q9UKT9] have a reported log2 fold change of degron read counts of at least -2?
1 (yes)

Does LCCNQCGFACTQKGNLLRHIKL [46L_47C_49N_50Q_52G_53F_54A_55C_67L_, Q9UKT9] have a reported log2 fold change of degron read counts of at least -2?
0 (no)

Does FGCDVCGAMFTQKGNLLRHIKL [46F_47G_49D_50V_52G_53A_54M_55F_67L_, Q9UKT9] have a reported log2 fold change of degron read counts of at least -2?
1 (yes)

Does FHCNQCGACFTQKGNLLRHIKL [46F_47H_49N_50Q_52G_53A_54C_55F_67L_, Q9UKT9] have a reported log2 fold change of degron read counts of at least -2?
1 (yes)

Does FYCNICGAPFTQKGNLLRHIKL [46F_47Y_49N_50I_52G_53A_54P_55F_67L_, Q9UKT9] have a reported log2 fold change of degron read counts of at least -2?
1 (yes)
